Below, each entry is listed with its recorded growth.
Tested on: HCT-15 colon
procedureText: NCI-60 one-dose screen, 48 h (100 = growth as untreated, 0 = no growth, -100 = all killed)
conditionDescription: 10 µM unless noted
Procedure: Growth inhibition of the HCT-15 human tumor cell line is measured as a screen for anti-cancer activity. Cells are grown in 96 well plates and exposed to the test compound for 48 hours. Compounds are tested at a single concentration, which is 10^-5 M for most compounds. The reported endpoint is percent growth (GI% or GIPRCNT), where numbers from 0 - 100% represent growth inhibition, and numbers from -100% - 0 represent cell death. For example, a value of 40 represents 60% growth inhibition. […]
Compounds without any hit were thinned out: in the full panel of roughly 83,000, 20% have a hit.

{"smi": "Cc1nn(-c2ccccc2)c2nc(C)n(C(=O)N/N=C/c3ccccc3)c(=O)c12", "testedTarget": "HCT-15 colon", "valueUnits": "%", "growth": 107}
{"smi": "Cc1ccc(C(=O)C[n+]2cccc3c4ccccc4ccc32)cc1", "testedTarget": "HCT-15 colon", "valueUnits": "%", "growth": 56.8}
{"smi": "COc1ccc(C(=O)c2c(N)c(C#N)cn2-c2ccc([N+](=O)[O-])cc2)cc1", "testedTarget": "HCT-15 colon", "valueUnits": "%", "growth": 104}
{"smi": "CN(C)CCCc1ccc(Nc2cnn(C)c(=O)c2Cl)cc1", "testedTarget": "HCT-15 colon", "valueUnits": "%", "growth": 96.6}
{"smi": "CCCCNC(=S)Nc1ccc(OCc2nc3ccc(Cl)cc3[nH]2)cc1", "testedTarget": "HCT-15 colon", "valueUnits": "%", "growth": 14.5}
